Data origin, for the record: the supplement of paper PMC8967900

Consider the following compounds; for each one, report its selective drug sensitivity score.
- System: CCRF-CEM
- EXPERIMENT_SUMMARY: selective drug sensitivity score (sDSS, relative to normal bone marrow) (sDSS (score)); higher = more potent and effective on the cell line relative to normal bone marrow cells;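 also: ALL cell lines in 384-well plates, five doses spanning 10,000-fold, each plate scaled between vehicle and 100 µmol/L benzalkonium chloride controls, sDSS an adapted area-under-curve metric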
- CONDITION_SET: 72 h
Kindly provide the number alone.

[ask] Return reported selective drug sensitivity score. Input compound: CC(C)n1cnc2c(NCCc3ccc(O)cc3)nc(-c3csc4ccccc34)nc21 [StemRegenin_1] (top concentration 10000 nM)
[reply] 1.4

[ask] Please look at this compound and report its selective drug sensitivity score: C[C@@H](Oc1ccc2[nH]nc(/C=C/c3cnn(CCO)c3)c2c1)c1c(Cl)cncc1Cl (top concentration 1000 nM)
[reply] -2.74

[ask] Respond only with selective drug sensitivity score recorded for CCN(CC)Cc1ccc2cc(COC(=O)Nc3ccc(C(=O)NO)cc3)ccc2c1 [Givinostat] (top concentration 1000 nM)
[reply] 3.6

[ask] Input O=C(CCCCCCC(=O)Nc1ccc([C@H]2O[C@@H](CSc3nc(-c4ccccc4)c(-c4ccccc4)o3)C[C@@H](c3ccc(CO)cc3)O2)cc1)NO [Tubacin] (top concentration 10000 nM) , output reported selective drug sensitivity score.
[reply] 8.74

[ask] Kindly indicate its recorded selective drug sensitivity score. Item: Cc1noc2c1-c1ccccc1C(c1ccc(Cl)cc1)=N[C@H]2CC(N)=O [CPI-0610] (top concentration 10000 nM)
[reply] -0.1

[ask] Given Cc1c(F)cc(C(=O)NC2CC2)cc1-c1ccc(C(=O)NCC(C)(C)C)cn1 [Losmapimod] (top concentration 10000 nM) , respond with its selective drug sensitivity score.
[reply] -0.18

[ask] Tell me measured selective drug sensitivity score for C/C(=C\c1csc(C)n1)[C@@H]1C[C@@H]2O[C@]2(C)CCC[C@H](C)[C@H](O)[C@@H](C)C(=O)C(C)(C)[C@@H](O)CC(=O)N1 [Ixabepilone] (top concentration 1000 nM) please.
[reply] 3.08

[ask] Please report selective drug sensitivity score for the following compound: COc1ccccc1S(=O)(=O)Nc1ccc2c(c1)CN(C)C(=O)N2 [PFI-1] (top concentration 30000 nM)
[reply] 1.4

[ask] Supply reported selective drug sensitivity score belonging to this compound: CCNC(=O)CCC/C=C\C[C@@H]1[C@@H](/C=C/[C@@H](O)CCc2ccccc2)[C@H](O)C[C@@H]1O [Bimatoprost] (top concentration 5500 nM)
[reply] 0

[ask] Give recorded selective drug sensitivity score. CC/C(=C(\c1ccccc1)c1ccc(OCCN(C)C)cc1)c1ccccc1 [Tamoxifen] (top concentration 10000 nM)
[reply] 0.82

[ask] Consider the compound CNCc1ccc(-c2[nH]c3cc(F)cc4c3c2CCNC4=O)cc1 [Rucaparib] (top concentration 10000 nM) and give its recorded selective drug sensitivity score.
[reply] 1.32

[ask] Using known records, supply selective drug sensitivity score for Cc1cc2c(C(C)C)c(O)c(O)c(C=O)c2c(O)c1-c1c(C)cc2c(C(C)C)c(O)c(O)c(C=O)c2c1O [AT-101] (top concentration 100000 nM)
[reply] 4.88

----------
- Tested on: REH
- EXPERIMENT_SUMMARY: selective drug sensitivity score (sDSS, relative to normal bone marrow) (sDSS (score)); higher = more potent and effective on the cell line relative to normal bone marrow cells
- CONDITION_SET: 72 h
Assign selective drug sensitivity score to each entry below.

[ask] Quick one: give measured selective drug sensitivity score for N#Cc1ccc(COC[C@H]2O[C@@H](n3c(NCc4ccc(Cl)c(Cl)c4)nc4c(N)ncnc43)[C@H](O)[C@@H]2O)cc1 (top concentration 10000 nM)
[reply] 9.12

[ask] Supply reported selective drug sensitivity score belonging to this molecule: Nc1ncn([C@H]2C[C@H](O)[C@@H](CO)O2)c(=O)n1 [Decitabine] (top concentration 10000 nM)
[reply] 3.94

[ask] Please report selective drug sensitivity score for the following molecule: CCN1C(=O)CNc2ncc(-c3ccc(-c4nc[nH]n4)nc3C)nc21 [CC-115] (top concentration 10000 nM)
[reply] 0.44

[ask] Query selective drug sensitivity score for Nc1nc2cc(-c3ccc4ncc(C(=O)N5CCOCC5)n4c3)ccc2o1 [Serabelisib] (top concentration 10000 nM)
[reply] 0.76

[ask] Given the molecule COCCNCc1ccc(-c2cc3nccc(Oc4ccc(NC(=S)NC(=O)Cc5ccc(F)cc5)cc4F)c3s2)nc1 [Glesatinib] (top concentration 2500 nM) , write its reported selective drug sensitivity score.
[reply] 4.44

[ask] Report selective drug sensitivity score, nothing else, for this molecule: C=C(c1ccc(C(=O)O)cc1)c1cc2c(cc1C)C(C)(C)CCC2(C)C [Bexarotene] (top concentration 10000 nM)
[reply] -3.8

----------
- Test system: NALL-1
- EXPERIMENT_SUMMARY: selective drug sensitivity score (sDSS, relative to normal bone marrow) (sDSS (score)); higher = more potent and effective on the cell line relative to normal bone marrow cells
- CONDITION_SET: 72 h
Exercise: for every item that follows, state its recorded selective drug sensitivity score.
Answer with the value's number alone.

[ask] Give the value of selective drug sensitivity score reported for the following: Nc1cc(COc2c(Cl)cc(C[C@H](N)C(=O)O)cc2Cl)c2oc(-c3ccccc3)nc2c1 [JPH203] (top concentration 5000 nM)
[reply] 0

[ask] Indicate the recorded selective drug sensitivity score value for this compound: C=C1C[C@@H]2[C@H](CC[C@]3(C)C(=O)CC[C@@H]23)[C@@]2(C)C=CC(=O)C=C12 [Exemestane] (top concentration 10000 nM)
[reply] -1.9

[ask] Tell us which selective drug sensitivity score value is on record for Cc1c(Cn2c(C)nc3c(C(=O)O)cc(N4CCOCC4)cc32)cccc1C(F)(F)F (top concentration 10000 nM)
[reply] 0.68

[ask] Indicate the recorded selective drug sensitivity score value for this compound: Oc1nc(-c2ccc(C(F)(F)F)cc2)nc2c1CSCC2 [XAV939] (top concentration 10000 nM)
[reply] -0.14

[ask] Determine from records and report selective drug sensitivity score for COCCOc1cnc2ccn([C@H](C)c3nnc4c(F)cc(-c5cnn(C)c5)cn34)c(=O)c2c1 [AMG-337] (top concentration 10000 nM)
[reply] 2.14

[ask] Supply measured selective drug sensitivity score of CCn1c(C(=O)N(C2CC2)C2CC2)cc2c3c(ncn3C)c(Nc3cc(C)n(C)n3)nc21 (top concentration 10000 nM) in your reply.
[reply] 0.44

[ask] // Input: CC(C)(C)C[C@@H]1N[C@@H](C(=O)N[C@H]2CC[C@H](O)CC2)[C@H](c2cccc(Cl)c2F)[C@]12C(=O)Nc1cc(Cl)ccc12 (top concentration 10000 nM) . Output its selective drug sensitivity score only.
[reply] -7.64

[ask] Output selective drug sensitivity score of CC1(C)NC(=O)N(c2ccc([N+](=O)[O-])c(C(F)(F)F)c2)C1=O [Nilutamide] (top concentration 10000 nM)
[reply] 7.02

[ask] Identify measured selective drug sensitivity score corresponding to CCC(C)(C)C(=O)O[C@H]1C[C@@H](C)C=C2C=C[C@H](C)[C@H](CC[C@@H]3C[C@@H](O)CC(=O)O3)[C@H]21 [Simvastatin] (top concentration 10000 nM)
[reply] 3.48

[ask] Tell me selective drug sensitivity score reported for Cc1cc(C)c(CNC(=O)c2cc(-c3ccc(CN4CCOCC4)cc3)cc3c2cnn3C2CCCC2)c(=O)[nH]1 [EPZ-5687] (top concentration 10000 nM)
[reply] 5.34

[ask] Entry Cn1c(Nc2ccc(C(F)(F)F)cc2)nc2cc(Oc3ccnc(-c4ncc(C(F)(F)F)[nH]4)c3)ccc21 [NVP-RAF265] (top concentration 1000 nM) needs its selective drug sensitivity score filled in; supply it.
[reply] 2.88

[ask] Report selective drug sensitivity score for CNC(=O)CN1CCC(Oc2cc3c(Nc4cccc(Cl)c4F)ncnc3cc2OC)CC1 [Sapitinib] (top concentration 1000 nM)
[reply] 0

[ask] Give selective drug sensitivity score for Oc1ccc2c(c1)CC[C@H](c1ccccc1)[C@@H]2c1ccc(OCCN2CCCC2)cc1 [Lasofoxifene] (top concentration 1000 nM)
[reply] -1.28

[ask] Supply recorded selective drug sensitivity score for CC(C)Oc1ccc(C(=O)N[C@H](CNC(=O)CN(C)C)Cc2ccc(-c3cn4cccc([C@H](C)O)c4n3)cc2)cc1Cl (top concentration 10000 nM) here.
[reply] 9.88

[ask] Supply selective drug sensitivity score value. Item: Cc1noc2c1-c1ccccc1C(c1ccc(Cl)cc1)=N[C@H]2CC(N)=O [CPI-0610] (top concentration 10000 nM)
[reply] -4.4

[ask] Answer with the recorded selective drug sensitivity score of CNC(=O)c1cccc2cc(Oc3ccnc4cc(OCC5(N)CC5)c(OC)cc34)ccc12 [Lucitanib] (top concentration 10000 nM) only.
[reply] 0.58

[ask] Given CS(=O)(=O)c1ccc(C(=O)Nc2ccc(Cl)c(-c3ccccn3)c2)c(Cl)c1 [Vismodegib] (top concentration 10000 nM) , respond with its selective drug sensitivity score.
[reply] 1.06

[ask] Fill in selective drug sensitivity score for record CC(C)C[C@H](NC(=O)CNC(=O)c1cc(Cl)ccc1Cl)B(O)O [Ixazomib] (top concentration 1000 nM)
[reply] 6.56

[ask] Give reported selective drug sensitivity score value for C#Cc1cccc(Nc2ncnc3cc4c(cc23)OCCOCCOCCO4)c1 [Icotinib] (top concentration 10000 nM)
[reply] 6.5

[ask] Write down selective drug sensitivity score measured for item CCN1C(=O)CNc2ncc(-c3ccc(-c4nc[nH]n4)nc3C)nc21 [CC-115] (top concentration 10000 nM)
[reply] 4.24

[ask] Identify selective drug sensitivity score associated with the compound COc1cc([C@@H]2c3cc4c(cc3[C@@H](O[C@@H]3O[C@@H]5CO[C@@H](c6cccs6)O[C@H]5[C@H](O)[C@H]3O)[C@H]3COC(=O)[C@H]23)OCO4)cc(OC)c1O [Teniposide] (top concentration 10000 nM)
[reply] 0

[ask] Report selective drug sensitivity score for Nc1nc(N)c2nc(-c3cccc(O)c3)c(-c3cccc(O)c3)nc2n1 [TG100-115] (top concentration 10000 nM)
[reply] 4.6

[ask] Check the records and state selective drug sensitivity score for Cc1c(C(=O)Nc2ccc(N3C[C@@H](C)O[C@@H](C)C3)nc2)cccc1-c1ccc(OC(F)(F)F)cc1 [Sonidegib] (top concentration 10000 nM)
[reply] 7.58

[ask] Give a short answer stating reported selective drug sensitivity score for Nc1ccn([C@@H]2O[C@H](CO)[C@@H](O)[C@@H]2O)c(=O)n1 [Cytarabine] (top concentration 10000 nM) .
[reply] 10.6

[ask] Retrieve selective drug sensitivity score measured for Cn1cnc2c(F)c(Nc3ccc(Br)cc3F)c(C(=O)NOCCO)cc21 [Binimetinib] (top concentration 1000 nM) and print it.
[reply] -2.22
